The reported numbers originate from patent US8748624B2.

- TARGET_OF_ASSAY: human GCGR (Homo sapiens (Human))
- Sequence (P47871 26-477): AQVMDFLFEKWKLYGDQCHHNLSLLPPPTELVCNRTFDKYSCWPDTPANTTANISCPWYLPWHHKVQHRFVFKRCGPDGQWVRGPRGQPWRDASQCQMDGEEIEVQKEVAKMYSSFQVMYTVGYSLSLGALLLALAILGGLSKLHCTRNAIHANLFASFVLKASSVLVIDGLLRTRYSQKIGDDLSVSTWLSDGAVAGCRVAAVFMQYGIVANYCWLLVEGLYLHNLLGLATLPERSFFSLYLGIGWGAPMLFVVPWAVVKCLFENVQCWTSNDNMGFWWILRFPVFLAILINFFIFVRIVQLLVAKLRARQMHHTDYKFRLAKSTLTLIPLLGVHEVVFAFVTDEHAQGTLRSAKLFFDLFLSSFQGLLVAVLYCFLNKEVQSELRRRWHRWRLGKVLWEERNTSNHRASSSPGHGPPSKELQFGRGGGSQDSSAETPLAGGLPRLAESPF
- PROCEDURE_TEXT: Cellular functional assay, cAMP readout (glucagon-stimulated cAMP in HEK293 cells expressing human GCGR)
- Type: cell-based
- MEASUREMENT_CONDITIONS: hGluc-1 HEK cells, LANCE TR-FRET, IC50 converted to Ki, average if tested more than once
pKi: −log10 of the molar value.

| COMPOUND | TARGET_OF_ASSAY | BOUND_OPERATOR | pKi |
| --- | --- | --- | --- |
| Cc1cc(C(F)(F)F)ccc1-c1ccc(NCc2ccc(C(F)(F)F)cc2-c2ccc(C(=O)NCCC(=O)O)nc2)cc1Cl | human GCGR (Homo sapiens (Human)) | = | 7.66 |
| O=C(O)CCNC(=O)c1ccc(-c2cc(Cl)ccc2CNc2ccc(-c3ccc(Cl)c(F)c3)c(F)c2)cn1 | human GCGR (Homo sapiens (Human)) | = | 6.53 |
| O=C(O)CCNC(=O)c1ccc(-c2cc(C(F)(F)F)ccc2CNc2ccc(-c3ccc(Cl)cc3)c(C(F)(F)F)c2)cn1 | human GCGR (Homo sapiens (Human)) | = | 6.96 |
| O=C(O)CCNC(=O)c1ccc(-c2cc(C(F)(F)F)ccc2CNc2ccc(-c3ccc(F)c(C(F)(F)F)c3)cc2)cn1 | human GCGR (Homo sapiens (Human)) | = | 6.76 |
| Cc1cc(C(F)(F)F)ccc1-c1ccc(NCc2ccc(C(F)(F)F)cc2-c2ccc(C(=O)NCCC(=O)O)nc2)cc1C(F)(F)F | human GCGR (Homo sapiens (Human)) | = | 7.43 |
| N#Cc1cc(NCc2cc(F)c(F)cc2-c2ccc(C(=O)NCCC(=O)O)nc2)ccc1-c1ccc(Cl)cc1 | human GCGR (Homo sapiens (Human)) | = | 6.77 |
| Cc1ccc(-c2ccc(NCc3cc(F)c(F)cc3-c3ccc(C(=O)NCCC(=O)O)nc3)cc2Cl)c(F)c1 | human GCGR (Homo sapiens (Human)) | = | 6.59 |
| CC(Nc1ccc(-c2ccc(F)cc2)cc1)c1ccc(Cl)cc1-c1ccc(C(=O)NCCC(=O)O)nc1 (centres unmarked) | human GCGR (Homo sapiens (Human)) | = | 5.66 |
| O=C(O)CCNC(=O)c1ccc(-c2cc(C(F)(F)F)cc(C(F)(F)F)c2CNc2ccc(-c3cccc(Cl)c3Cl)cc2)cn1 | human GCGR (Homo sapiens (Human)) | = | 7.44 |
| O=C(O)CCNC(=O)c1ccc(-c2cc(C3=CCCCC3)ccc2CNc2ccc(-c3ccc(Cl)cc3Cl)cc2)cn1 | human GCGR (Homo sapiens (Human)) | = | 6.80 |
| O=C(O)CCNC(=O)c1ccc(-c2cc(Cl)ccc2CNc2ccc(-c3ccccc3OC(F)(F)F)cc2)cn1 | human GCGR (Homo sapiens (Human)) | = | 5.71 |
| CS(=O)(=O)c1ccc(CNc2ccc(-c3ccc(Cl)cc3)cc2)c(-c2ccc(C(=O)NCCC(=O)O)nc2)c1 | human GCGR (Homo sapiens (Human)) | < | 4.98 |
| N#Cc1cc(NCc2cc(F)c(F)cc2-c2ccc(C(=O)NCCC(=O)O)nc2)ccc1-c1ccc(Cl)c(C(F)(F)F)c1 | human GCGR (Homo sapiens (Human)) | = | 6.19 |
| O=C(O)CCNC(=O)c1ccc(-c2cc(C(F)(F)F)cc(Cl)c2CNc2ccc(-c3ccc(Cl)cc3)cc2)cn1 | human GCGR (Homo sapiens (Human)) | = | 7.91 |
| CC(C)c1ccc(CNc2ccc(-c3ccc(F)cc3)cc2)c(-c2ccc(C(=O)NCCC(=O)O)nc2)c1 | human GCGR (Homo sapiens (Human)) | = | 6.90 |
| O=C(O)CCNC(=O)c1ccc(-c2cc(Cl)ccc2CNc2ccc(-c3cccc(F)c3)cc2)cn1 | human GCGR (Homo sapiens (Human)) | = | 6.22 |
| Cc1cc(-c2ccc(NCc3ccc(Cl)cc3-c3ccc(C(=O)NCCC(=O)O)nc3)cc2)ccc1F | human GCGR (Homo sapiens (Human)) | = | 6.57 |
| O=C(O)CCNC(=O)c1ccc(-c2cc(C(F)(F)F)ccc2CNc2ccc(-c3ccc(F)cc3Cl)c(Cl)c2)cn1 | human GCGR (Homo sapiens (Human)) | = | 7.22 |
| O=C(O)CCNC(=O)c1ccc(-c2cc(Cl)ccc2CNc2ccc(-c3ccc(Cl)cc3)cc2)cn1 | human GCGR (Homo sapiens (Human)) | = | 7.30 |
| O=C(O)CCNC(=O)c1ccc(-c2cc(C(F)(F)F)cc(C(F)(F)F)c2CNc2ccc(-c3ccc(Cl)cc3Cl)cc2)cn1 | human GCGR (Homo sapiens (Human)) | = | 7.76 |
| O=C(O)CCNC(=O)c1ccc(-c2cc(C(F)(F)F)ccc2CNc2ccc(-c3ccc(C(F)(F)F)cc3)c(C(F)(F)F)c2)cn1 | human GCGR (Homo sapiens (Human)) | = | 7.15 |
| O=C(O)CCNC(=O)c1ccc(-c2cc(Cl)ccc2CNc2ccc(-c3ccc(Cl)cc3)c(F)c2)cn1 | human GCGR (Homo sapiens (Human)) | = | 6.53 |
| O=C(O)CCNC(=O)c1ccc(-c2cc(Cl)ccc2CNc2ccc(-c3ccc(F)cc3Cl)cc2)cn1 | human GCGR (Homo sapiens (Human)) | = | 6.85 |
| O=C(O)CCNC(=O)c1ccc(-c2cc(C(F)(F)F)ccc2CNc2ccc(-c3ccc(Cl)cc3Cl)c(Cl)c2)cn1 | human GCGR (Homo sapiens (Human)) | = | 7.76 |
| COc1ccc(CNc2ccc(-c3ccc(Cl)cc3)cc2)c(-c2ccc(C(=O)NCCC(=O)O)nc2)c1 | human GCGR (Homo sapiens (Human)) | < | 4.70 |
| O=C(O)CCNC(=O)c1ccc(-c2cc(Cl)ccc2CNc2ccc(-c3ccc(F)cc3F)cc2)cn1 | human GCGR (Homo sapiens (Human)) | = | 6.55 |
